Where do these numbers come from? They come from ChEMBL document CHEMBL4482325.

Answer each item with its documented IC50.
assay.name: Inhibition of Staphylococcus aureus ClpPX assessed as reduction in ATP hydrolysis incubated for 2 to 14 mins by malachite green assay

Query: Field request: IC50 | item: O=C1C2=C(Nc3ccccc3SC2c2cccs2)c2ccccc21 (configuration not stated)
Response: 1.6 to 2.4 µM

Query: Any idea what its IC50 is? The compound is O=C1C2=C(Nc3ccccc3SC2c2cccc(O)c2)c2ccccc21 (configuration not stated)
Response: 1.6 to 2.4 µM

* * *

Tested on: Staphylococcus aureus
assay.name: Suppression of virulence factors in Staphylococcus aureus NCTC 8325 assessed as reduction in serine protease E expression
Type: functional, organism-based
measured.property: pEC50
Value format note: pEC50 is -log10 of concentration (mol/L); just state the number.

Query: Name the recorded pEC50 for O=C1C2=C(Nc3ccccc3SC2c2cccc(O)c2)c2ccccc21 (stereo unspecified) .
Response: 5.52

* * *

assay.name: Half life in mouse plasma at 100 uM by HPLC and MS analysis
Assay type: ADME, cell-free
measured.property: half-life at 100 µM

Query: Look at this molecule and give its reported half-life at 100 µM. O=C1C2=C(Nc3ccccc3SC2c2cccc(O)c2)c2ccccc21 (stereo unspecified)
Response: > 4 h

* * *

System: Staphylococcus aureus
assay.name: Suppression of virulence factors in Staphylococcus aureus NCTC 8325 assessed as reduction in serine protease B expression
Format: functional, organism-based
measured.property: pEC50
Keep it numeric: pEC50 is minus log10 of the concentration in mol/L.

Query: I am curious: what pEC50 value has been reported for O=C1C2=C(Nc3ccccc3SC2c2cccc(O)c2)c2ccccc21 (stereo unspecified) ?
Response: 5.52

* * *

System: Staphylococcus aureus
assay.name: Inhibition of Staphylococcus aureus ClpXP using ssrA degradation tagged fluorescent GFP substrate in presence of ATP regeneration system pre-incubation for 15 mins before substrate addition by fluorescence assay
The source made the active and inactive calls. The rule behind the calls is not given here.
# valid calls are y = active, n = inactive; nothing else

Query: Test call for this compound, please: O=C1C2=C(Nc3ccccc3SC2c2ccc(F)cc2)c2ccccc21 (stereo unspecified)
Response: y

Query: Recorded test call requested for O=C(O)c1ccc(C2Sc3ccccc3NC3=C2C(=O)c2ccccc23)cc1 (stereo unspecified)
Response: n

Query: Can you look up the reported call for O=C1C2=C(Nc3ccccc3SC2c2ccccc2O)c2ccccc21 (stereo unspecified) for me?
Response: n

Query: Could you please tell me the result logged for COc1ccc2c(c1)SC(c1cccc(O)c1)C1=C(N2)c2ccccc2C1=O (stereo unspecified) in this assay?
Response: y

Query: Recorded test outcome, item C#Cc1ccc2c(c1)C(=O)C1=C2Nc2ccccc2SC1c1cccc(O)c1 (stereo unspecified)
Response: y

Query: Could you please tell me the result logged for O=C1C2=C(Nc3ccccc3NC2c2ccccc2)c2ccccc21 (stereo unspecified) in this assay?
Response: y
